Values were extracted from PubChem BioAssay AID1963443.

Tested on: MDA-MB-231 complex spheroids, growth inhibition
PROCEDURE DETAILS: Anticancer human tumor MDA-MB-231 cell line growth inhibition [Asc]; active means viability on the fitted dose curve at most 10% of control; inactive means the rest;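 further: spheroids exposed to compounds for 7 days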
SETUP CONDITIONS: second compound 0.949 µM; first compound 10 µM
Classes used: active, inactive

COMPOUND | CLASS
C=CC(=O)N1CCN(c2nc(=O)n(-c3c(C)ccnc3C(C)C)c3nc(-c4c(O)cccc4F)c(F)cc23)C(C)C1 (centres undefined) + CCN1C(C(=O)NC23CCC(C(=O)O)(CC2)CC3)C(c2cccc(Cl)c2F)C2(C(=O)Nc3cc(Cl)ccc32)C12CCCCC2 | inactive
C=C(F)C(=O)N1CCN(c2nc(OCC3CCCN3C)nc3c2CCN(c2cccc4cccc(Cl)c24)C3)CC1CC#N (centres undefined) + CCN1C(C(=O)NC23CCC(C(=O)O)(CC2)CC3)C(c2cccc(Cl)c2F)C2(C(=O)Nc3cc(Cl)ccc32)C12CCCCC2 | active
C#Cc1c(F)ccc2cc(O)cc(-c3ncc4c(N5CC6CCC(C5)N6)nc(OCC56CCCN5CC(F)C6)nc4c3F)c12 (centres undefined) + CCN1C(C(=O)NC23CCC(C(=O)O)(CC2)CC3)C(c2cccc(Cl)c2F)C2(C(=O)Nc3cc(Cl)ccc32)C12CCCCC2 | inactive
O=C(c1cc(Cc2n[nH]c(=O)c3ccccc23)ccc1F)N1CCN(C(=O)C2CC2)CC1 + CCN1C(C(=O)NC23CCC(C(=O)O)(CC2)CC3)C(c2cccc(Cl)c2F)C2(C(=O)Nc3cc(Cl)ccc32)C12CCCCC2 | inactive

* * *

Overview of recorded viability, T/C for various compounds
Test system: MDA-MB-231 complex spheroids, growth inhibition
PROCEDURE DETAILS: Anticancer human tumor MDA-MB-231 cell line growth inhibition [Asc];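 further: spheroids exposed to compounds for 7 days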
SETUP CONDITIONS: second compound 10 µM; first compound 0.1 µM; hits give low values

COMPOUND | UNIT ANNOTATION | viability, T/C
NC1CCC(NC2CC2c2ccccc2)CC1 (configuration not stated) + Cc1c(S(C)(=O)=O)c(-c2cc(F)cc(N3CCN(c4ccc(NS(=O)(=O)c5ccc(NC(CCN6CCC(C(=O)OCCCP(=O)(O)O)CC6)CSc6ccccc6)c(S(=O)(=O)C(F)(F)F)c5)cc4)CC3)c2)c(-c2ccc(Cl)cc2)n1C(C)C | % | 94.1
CCN1CCN(Cc2ccc(Nc3ncc(F)c(-c4cc(F)c5nc(C)n(C(C)C)c5c4)n3)nc2)CC1 + Cc1c(S(C)(=O)=O)c(-c2cc(F)cc(N3CCN(c4ccc(NS(=O)(=O)c5ccc(NC(CCN6CCC(C(=O)OCCCP(=O)(O)O)CC6)CSc6ccccc6)c(S(=O)(=O)C(F)(F)F)c5)cc4)CC3)c2)c(-c2ccc(Cl)cc2)n1C(C)C | % | 76.9
C=C(F)C(=O)N1CCN(c2nc(OCC3CCCN3C)nc3c2CCN(c2cccc4cccc(Cl)c24)C3)CC1CC#N (configuration not stated) + Cc1c(S(C)(=O)=O)c(-c2cc(F)cc(N3CCN(c4ccc(NS(=O)(=O)c5ccc(NC(CCN6CCC(C(=O)OCCCP(=O)(O)O)CC6)CSc6ccccc6)c(S(=O)(=O)C(F)(F)F)c5)cc4)CC3)c2)c(-c2ccc(Cl)cc2)n1C(C)C | % | 100
C=CC(=O)N1CCN(c2nc(=O)n(-c3c(C)ccnc3C(C)C)c3nc(-c4c(O)cccc4F)c(F)cc23)C(C)C1 (configuration not stated) + Cc1c(S(C)(=O)=O)c(-c2cc(F)cc(N3CCN(c4ccc(NS(=O)(=O)c5ccc(NC(CCN6CCC(C(=O)OCCCP(=O)(O)O)CC6)CSc6ccccc6)c(S(=O)(=O)C(F)(F)F)c5)cc4)CC3)c2)c(-c2ccc(Cl)cc2)n1C(C)C | % | 93.7
O=C(c1ccc(F)c(F)c1Nc1ccc(I)cc1F)N1CC(O)([C@@H]2CCCCN2)C1 + Cc1c(S(C)(=O)=O)c(-c2cc(F)cc(N3CCN(c4ccc(NS(=O)(=O)c5ccc(NC(CCN6CCC(C(=O)OCCCP(=O)(O)O)CC6)CSc6ccccc6)c(S(=O)(=O)C(F)(F)F)c5)cc4)CC3)c2)c(-c2ccc(Cl)cc2)n1C(C)C | % | 57.1
Cn1ncnc1[C@H]1c2n[nH]c(=O)c3cc(F)cc(c23)N[C@@H]1c1ccc(F)cc1 + Cc1c(S(C)(=O)=O)c(-c2cc(F)cc(N3CCN(c4ccc(NS(=O)(=O)c5ccc(NC(CCN6CCC(C(=O)OCCCP(=O)(O)O)CC6)CSc6ccccc6)c(S(=O)(=O)C(F)(F)F)c5)cc4)CC3)c2)c(-c2ccc(Cl)cc2)n1C(C)C | % | 65
O=C(c1cc(Cc2n[nH]c(=O)c3ccccc23)ccc1F)N1CCN(C(=O)C2CC2)CC1 + Cc1c(S(C)(=O)=O)c(-c2cc(F)cc(N3CCN(c4ccc(NS(=O)(=O)c5ccc(NC(CCN6CCC(C(=O)OCCCP(=O)(O)O)CC6)CSc6ccccc6)c(S(=O)(=O)C(F)(F)F)c5)cc4)CC3)c2)c(-c2ccc(Cl)cc2)n1C(C)C | % | 101
